experiment: APP 5'UTR translational reporter suppression – APP 5'UTR luciferase, SH-SY5Y cells, primary screen (AID 1285); conditions: SH-SY5Y APP 5'UTR-luciferase reporter, luminescence; at 2 µM
In all, about 190,000 compounds went through this assay and about 1,600 (0.84%) were called active.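 How the source made its calls: active means inhibition above a set limit, derived from the sample mean plus 3 SD (cut at about 45% in these data); inconclusive means one replicate passes the limit while the other fails; inactive means the rest.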 What follows is part of a selection rich in actives, with near analogues and random picks from the rest.
Classes used: label 1 = active, label 0 = inactive

{"columns": ["Compound", "Qualitative Label"],
 "data": [
  ["Cc1nc2ccc(C(=O)O)cc2[nH]1", "label 0"],
  ["CC(C)c1nc2ccc(C(=O)O)cc2[nH]1", "label 0"],
  ["COC(=O)Nc1nc2ccc(Sc3ccccc3)cc2[nH]1", "label 1"],
  ["O=C(CC1SC(=Nc2ccccc2F)N(CCN2CCOCC2)C1=O)Nc1ccc(F)cc1F (stereo unspecified)", "label 0"],
  ["COc1ccc(S(=O)(=O)N2CN(CCc3ccc(OC)c(OC)c3)c3nc4ccccc4nc32)cc1", "label 0"],
  ["O=[N+]([O-])c1cccc(/C([O-])=C(/C(=S)Nc2ccccc2F)[n+]2ccccc2)c1", "label 0"],
  ["CC(Oc1ccccc1)C(=O)NN1Cc2ccccc2C1=N (stereo unspecified)", "label 0"],
  ["O=C(Nc1ccnc(-c2ccncc2)n1)c1cccs1", "label 0"],
  ["O=C(O)COc1ccc(-c2nccc(-c3cccs3)n2)cc1", "label 1"],
  ["COc1ccc(NC(=O)CCNS(=O)(=O)c2ccc3c(c2)c(=O)n(C)c(=O)n3C)cc1OC", "label 0"],
  ["Cc1ccc(CC2S/C(=C(/C#N)C(=O)N3CCOCC3)N(c3ccccc3)C2=O)cc1 (stereo unspecified)", "label 0"]
]}
